test system: Pseudomonas aeruginosa biofilm formation; assay: Minimum Biofilm Inhibition Concentration (MBIC) assay, crystal violet biofilm mass; type: cell-based; details: IC50 relative to ajoene run in the same experiment; <100% = more effective than ajoene
QUANTITY: P. aeruginosa MBIC: % of Ajoene positive control IC50

Ask: Any idea what P. aeruginosa MBIC: % of Ajoene positive control IC50 was measured for C=CCSSC=CCS(=O)(=O)Cc1ccc(F)cc1 ?
Result: 49.2 % of Ajoene

Ask: Any idea what P. aeruginosa MBIC: % of Ajoene positive control IC50 was measured for COc1ccccc1CSSC=CCS(=O)(=O)Cc1ccc(C(F)(F)F)cc1 ?
Result: 13.9 % of Ajoene

Ask: Any idea what P. aeruginosa MBIC: % of Ajoene positive control IC50 was measured for C=CCSSC=CCS(=O)(=O)Cc1ccc(OC)cc1 ?
Result: 87 % of Ajoene

Ask: Any idea what P. aeruginosa MBIC: % of Ajoene positive control IC50 was measured for O=S(=O)(CC=CSSCc1ccc(C(F)(F)F)cc1)Cc1ccc(C(F)(F)F)cc1 [drawing 50] ?
Result: 45.3 % of Ajoene
